# Measurement Target: HsRAD51 wild type (Homo sapiens, UniProt Q06609 1-339)
# Sequence (Q06609 whole entry): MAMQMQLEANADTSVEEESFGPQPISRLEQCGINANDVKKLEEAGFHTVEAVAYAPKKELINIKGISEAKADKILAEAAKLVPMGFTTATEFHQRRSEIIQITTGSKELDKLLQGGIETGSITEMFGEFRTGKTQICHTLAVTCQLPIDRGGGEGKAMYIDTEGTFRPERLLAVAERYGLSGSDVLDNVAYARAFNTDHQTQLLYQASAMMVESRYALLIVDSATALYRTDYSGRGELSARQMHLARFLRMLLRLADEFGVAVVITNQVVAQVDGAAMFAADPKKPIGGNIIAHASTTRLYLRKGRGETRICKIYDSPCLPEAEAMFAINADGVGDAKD
# Test Protocol: SPR; ATP (2.5 mM); SPR (Biacore 3000): 20 mM HEPES pH 7.5, 10% glycerol, 1 mM DTT, 1 mM MgCl2, 0.005% P-20, 2.5 mM indicated nucleotide, 150 mM KCl when indicated (text: salt similar to strand exchange), 25 C, 100 nM-1.6 uM protein
# Setup Conditions: protein: recombinant; chain copies: 10; label: 5' biotin; single strand
Measured Parameter: pKd
Quick note: pKd means taking -log10 of the concentration in moles per liter.

Entry under test: TTTTTTTTTTTTTTTTTTTTTTTTTTTTTTTTTTTTTTTTTTTTTTTTTT (ssDNA) [dT50] . Its pKd was 7.05
